Taken from patent US11007270B2.

- system: VEGFR-2 (Homo sapiens)
- Sequence (P35968 20-1356, species assumed): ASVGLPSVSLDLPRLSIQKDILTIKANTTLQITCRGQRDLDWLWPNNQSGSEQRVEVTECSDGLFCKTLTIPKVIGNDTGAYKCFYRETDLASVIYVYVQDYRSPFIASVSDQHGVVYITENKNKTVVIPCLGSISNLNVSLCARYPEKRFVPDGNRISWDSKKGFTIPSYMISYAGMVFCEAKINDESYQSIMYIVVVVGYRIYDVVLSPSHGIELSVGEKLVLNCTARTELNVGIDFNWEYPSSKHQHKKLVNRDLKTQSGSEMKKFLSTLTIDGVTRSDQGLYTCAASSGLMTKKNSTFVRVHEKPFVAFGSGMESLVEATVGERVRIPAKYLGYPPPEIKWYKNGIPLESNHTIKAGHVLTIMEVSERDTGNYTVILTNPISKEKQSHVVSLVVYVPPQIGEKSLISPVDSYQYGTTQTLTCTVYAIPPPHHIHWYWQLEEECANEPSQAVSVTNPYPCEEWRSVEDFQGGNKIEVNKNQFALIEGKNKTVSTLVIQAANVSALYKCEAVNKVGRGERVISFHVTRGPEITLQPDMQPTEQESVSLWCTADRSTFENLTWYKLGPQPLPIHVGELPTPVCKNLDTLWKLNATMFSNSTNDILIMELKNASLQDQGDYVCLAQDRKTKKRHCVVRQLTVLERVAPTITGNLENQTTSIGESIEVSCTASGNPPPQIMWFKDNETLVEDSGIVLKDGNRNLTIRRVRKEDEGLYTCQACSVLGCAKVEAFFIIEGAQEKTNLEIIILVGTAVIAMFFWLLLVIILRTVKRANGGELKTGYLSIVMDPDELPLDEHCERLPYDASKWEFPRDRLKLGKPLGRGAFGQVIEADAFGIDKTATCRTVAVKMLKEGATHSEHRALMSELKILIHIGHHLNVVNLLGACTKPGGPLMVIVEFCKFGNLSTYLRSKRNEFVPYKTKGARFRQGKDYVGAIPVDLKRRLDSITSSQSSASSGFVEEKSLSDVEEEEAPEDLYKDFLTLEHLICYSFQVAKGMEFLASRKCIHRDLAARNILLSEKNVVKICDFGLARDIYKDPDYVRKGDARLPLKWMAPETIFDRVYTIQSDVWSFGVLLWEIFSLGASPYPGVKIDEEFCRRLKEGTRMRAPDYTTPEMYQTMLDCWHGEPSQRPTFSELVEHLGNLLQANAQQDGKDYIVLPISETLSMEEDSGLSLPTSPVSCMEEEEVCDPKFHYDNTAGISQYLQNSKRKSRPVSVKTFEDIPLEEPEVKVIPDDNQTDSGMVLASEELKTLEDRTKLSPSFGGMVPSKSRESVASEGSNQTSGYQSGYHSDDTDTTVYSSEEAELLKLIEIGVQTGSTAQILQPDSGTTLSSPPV
- protocol description: VEGFR-2 kinase inhibition, Caliper screening (fluorescent substrate phosphorylation, electrophoretic separation)
- assay conditions: concentration 1.0E−10 (unit not given)
property: VEGFR-2 AVG % Activity at Specific Concentration (%)

[
  {
    "structure smiles": "COCCOCCOCCOCCOCCOCCOCCOCCNC(=O)c1c(C)[nH]c(/C=C2\\C(=O)Nc3ccc(F)cc32)c1C",
    "unit info": "%",
    "quantitative readout": 86
  },
  {
    "structure smiles": "COCCOCCOCCNC(=O)c1c(C)[nH]c(/C=C2\\C(=O)Nc3ccc(F)cc32)c1C",
    "unit info": "%",
    "quantitative readout": 93
  },
  {
    "structure smiles": "COCCOCCOCCOCCNC(=O)c1c(C)[nH]c(/C=C2\\C(=O)Nc3ccc(F)cc32)c1C",
    "unit info": "%",
    "quantitative readout": 86
  },
  {
    "structure smiles": "COCCOCCOCCOCCOCCOCCOCCOCCOCCNC(=O)c1c(C)[nH]c(/C=C2\\C(=O)Nc3ccc(F)cc32)c1C",
    "unit info": "%",
    "quantitative readout": 89
  },
  {
    "structure smiles": "COCCOCCOCCOCCOCCOCCOCCNC(=O)c1c(C)[nH]c(/C=C2\\C(=O)Nc3ccc(F)cc32)c1C",
    "unit info": "%",
    "quantitative readout": 98
  }
]
